Data origin, for the record: the supplement of paper PMC6992640

# System: HCI09 (cells of a triple-negative luminal androgen receptor type breast cancer xenograft);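 also: PDX cells carrying CMV promoter-driven luciferase, viability read as total photon flux per second by IVIS imaging following D-luciferin, vehicle control 0.1% DMSO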
# experimental_protocol: cell viability (% of vehicle); higher = less cytotoxic
# test_parameters: 10 µM; 72 h
Kindly apply the following: fulfilled if cell viability is less than 90, not fulfilled in every other case.

Q: I'd appreciate it if you could check whether CCOC(=O)C1=C(COCCN)NC(C)=C(C(=O)OC)C1c1ccccc1Cl (centres undefined) has cell viability smaller than 90.
A: fulfilled

More entries:
Q: I'd appreciate it if you could check whether Nc1c(CC(=O)[O-])cccc1C(=O)c1ccc(Br)cc1.[Na+] [Bromfenac Sodium] has cell viability smaller than 90.
A: fulfilled

Q: I'd appreciate it if you could check whether "Cc1c(O)c(=O)ccn1C" has cell viability smaller than 90.
A: fulfilled

Q: I'd appreciate it if you could check whether O=C(O)COCCN1CCN(C(c2ccccc2)c2ccc(Cl)cc2)CC1 (centres undefined) has cell viability smaller than 90.
A: not fulfilled

Q: I'd appreciate it if you could check whether CN(C)CCc1c[nH]c2ccc(CC3COC(=O)N3)cc12 (centres undefined) has cell viability smaller than 90.
A: not fulfilled

Q: I'd appreciate it if you could check whether Clc1ccc(COC(Cn2ccnc2)c2ccc(Cl)cc2Cl)cc1.O=[N+]([O-])O (centres undefined) [Econazole nitrate] has cell viability smaller than 90.
A: fulfilled

Q: I'd appreciate it if you could check whether CC(C(=O)[O-])c1cccc(Oc2ccccc2)c1.CC(C(=O)[O-])c1cccc(Oc2ccccc2)c1.[Ca+2] (centres undefined) has cell viability smaller than 90.
A: not fulfilled
